Where these numbers come from: paper PMC7508416

Give measured % Depletion for each item. Keep answers brief.
Stated Conditions: 10 μM; Heat-inactivated s9; after 60 min (Eq. 1)
Give bare numbers, in %.

Some compounds with recorded % Depletion:
| Compound | Scale Unit | % Depletion |
| --- | --- | --- |
| O=P(Oc1ccccc1)(Oc1ccccc1)Oc1ccccc1 [TPHP, triphenyl phosphate, reference compound] | % | 6 |
| CC(C)c1ccc(OP(=O)(Oc2ccccc2)Oc2ccccc2)cc1 [4IPPDPP, 4-isopropylphenyl diphenyl phosphate] | % | 3 |
| CC(C)c1ccccc1OP(=O)(Oc1ccccc1)Oc1ccccc1 [2IPPDPP, 2-isopropylphenyl diphenyl phosphate] | % | 0 |

Please examine the following record next.
Problem: Dear colleague, please send me the reported % Depletion for CC(C)(C)c1ccc(OP(=O)(Oc2ccccc2)Oc2ccccc2)cc1 [4tBPDPP, 4-tert-butylphenyl diphenyl phosphate] when you can.
Solution: 12

###

Provide the recorded Percentage of Initial Parent Administration (Mean ± Std Dev): parent compound for the entries that follow.
Stated Conditions: 1 μM; unprocessed spike
Numbers only, in %.

Examples from the recorded data:
| Molecule | Data Value |
| --- | --- |
| CC(C)(C)c1ccc(OP(=O)(Oc2ccccc2)Oc2ccccc2)cc1 [4tBPDPP, 4-tert-butylphenyl diphenyl phosphate] | 92 |
| O=P(Oc1ccccc1)(Oc1ccccc1)Oc1ccccc1 [TPHP, triphenyl phosphate, reference compound] | 100 |
| CC(C)c1ccc(OP(=O)(Oc2ccccc2)Oc2ccccc2)cc1 [4IPPDPP, 4-isopropylphenyl diphenyl phosphate] | 100 |

Here's the next entry for you.
Problem: Fill in Percentage of Initial Parent Administration (Mean ± Std Dev): parent compound for record CC(C)c1ccccc1OP(=O)(Oc1ccccc1)Oc1ccccc1 [2IPPDPP, 2-isopropylphenyl diphenyl phosphate]
Solution: 100

###

Stated Conditions: 10 μM; s9; after 60 min (Eq. 1)
Outcome Measure: % Depletion
Quick note: unit goes after the number.

// known answers, use as guide
| Molecule | Data Value |
| --- | --- |
| CC(C)(C)c1ccc(OP(=O)(Oc2ccccc2)Oc2ccccc2)cc1 [4tBPDPP, 4-tert-butylphenyl diphenyl phosphate] | 12% |
| O=P(Oc1ccccc1)(Oc1ccccc1)Oc1ccccc1 [TPHP, triphenyl phosphate, reference compound] | 32% |
| CC(C)c1ccccc1OP(=O)(Oc1ccccc1)Oc1ccccc1 [2IPPDPP, 2-isopropylphenyl diphenyl phosphate] | 23% |

Kindly consider the entry below.
Problem: Return value of % Depletion for input CC(C)c1ccc(OP(=O)(Oc2ccccc2)Oc2ccccc2)cc1 [4IPPDPP, 4-isopropylphenyl diphenyl phosphate] , no commentary.
Solution: 45%

###

Stated Conditions: 1 μM; Abiotic Control; after 60 min (Eq. 1)
Outcome Measure: % Depletion (%)
Numbers only, in %.

Recorded results for 3 compounds are shown here.
| Compound | Data Value |
| --- | --- |
| O=P(Oc1ccccc1)(Oc1ccccc1)Oc1ccccc1 [TPHP, triphenyl phosphate, reference compound] | 6 |
| CC(C)(C)c1ccc(OP(=O)(Oc2ccccc2)Oc2ccccc2)cc1 [4tBPDPP, 4-tert-butylphenyl diphenyl phosphate] | 9 |
| CC(C)c1ccccc1OP(=O)(Oc1ccccc1)Oc1ccccc1 [2IPPDPP, 2-isopropylphenyl diphenyl phosphate] | 0 |

// next item, % Depletion requested
Problem: Write down % Depletion measured for item CC(C)c1ccc(OP(=O)(Oc2ccccc2)Oc2ccccc2)cc1 [4IPPDPP, 4-isopropylphenyl diphenyl phosphate]
Solution: 0

###

Stated Conditions: 10 μM; s9 & glucuronidase; after 60 min (Eq. 1)
Outcome Measure: % Depletion

| Compound | % Depletion |
| --- | --- |
| CC(C)(C)c1ccc(OP(=O)(Oc2ccccc2)Oc2ccccc2)cc1 [4tBPDPP, 4-tert-butylphenyl diphenyl phosphate] | 23% |
| O=P(Oc1ccccc1)(Oc1ccccc1)Oc1ccccc1 [TPHP, triphenyl phosphate, reference compound] | 33% |
| CC(C)c1ccccc1OP(=O)(Oc1ccccc1)Oc1ccccc1 [2IPPDPP, 2-isopropylphenyl diphenyl phosphate] | 18% |

For the next question, use this compound.
Problem: Name the recorded % Depletion of the compound listed here: CC(C)c1ccc(OP(=O)(Oc2ccccc2)Oc2ccccc2)cc1 [4IPPDPP, 4-isopropylphenyl diphenyl phosphate]
Solution: 43%

###

Stated Conditions: 10 μM; Abiotic Control; after 60 min (Eq. 1)
Give % Depletion for every item shown.
Answers are plain numbers, in %.

Examples with answers:
| Compound | % Depletion [%] |
| --- | --- |
| O=P(Oc1ccccc1)(Oc1ccccc1)Oc1ccccc1 [TPHP, triphenyl phosphate, reference compound] | 5 |
| CC(C)(C)c1ccc(OP(=O)(Oc2ccccc2)Oc2ccccc2)cc1 [4tBPDPP, 4-tert-butylphenyl diphenyl phosphate] | 8 |
| CC(C)c1ccccc1OP(=O)(Oc1ccccc1)Oc1ccccc1 [2IPPDPP, 2-isopropylphenyl diphenyl phosphate] | 0 |

Problem: Look up and state reported % Depletion for CC(C)c1ccc(OP(=O)(Oc2ccccc2)Oc2ccccc2)cc1 [4IPPDPP, 4-isopropylphenyl diphenyl phosphate]
Solution: 6

###

Record form. Attribute: Depletion rate, slope, zero-order kinetics. Fill in for each entry.
Stated Conditions: 10 μM dose; linear regression
Numbers only, in nmol/min/mg protein.

| Compound | Data Value |
| --- | --- |
| CC(C)c1ccc(OP(=O)(Oc2ccccc2)Oc2ccccc2)cc1 [4IPPDPP, 4-isopropylphenyl diphenyl phosphate] | −0.097 |

Below are some compounds; for each one, tell me its Depletion rate, slope, zero-order kinetics.
1. CC(C)c1ccccc1OP(=O)(Oc1ccccc1)Oc1ccccc1 [2IPPDPP, 2-isopropylphenyl diphenyl phosphate]
2. CC(C)(C)c1ccc(OP(=O)(Oc2ccccc2)Oc2ccccc2)cc1 [4tBPDPP, 4-tert-butylphenyl diphenyl phosphate]
3. O=P(Oc1ccccc1)(Oc1ccccc1)Oc1ccccc1 [TPHP, triphenyl phosphate, reference compound]

Solution:
["−0.092", "−0.082", "−0.032"]

###

Stated Conditions: 1 μM; s9 & sulfatase
Outcome Measure: Percentage of Initial Parent Administration (Mean ± Std Dev): parent compound (%)
Give bare numbers, in %.

Examples from the recorded data:
| Compound | Data Value |
| --- | --- |
| CC(C)c1ccccc1OP(=O)(Oc1ccccc1)Oc1ccccc1 [2IPPDPP, 2-isopropylphenyl diphenyl phosphate] | 64 |
| O=P(Oc1ccccc1)(Oc1ccccc1)Oc1ccccc1 [TPHP, triphenyl phosphate, reference compound] | 23 |
| CC(C)(C)c1ccc(OP(=O)(Oc2ccccc2)Oc2ccccc2)cc1 [4tBPDPP, 4-tert-butylphenyl diphenyl phosphate] | 61 |

Problem: Fill in reported Percentage of Initial Parent Administration (Mean ± Std Dev): parent compound for this entry: CC(C)c1ccc(OP(=O)(Oc2ccccc2)Oc2ccccc2)cc1 [4IPPDPP, 4-isopropylphenyl diphenyl phosphate]
Solution: 29

###

Hi there, I'd appreciate the recorded Percentage of Initial Parent Administration (Mean ± Std Dev): parent compound for every entry that follows.
Stated Conditions: 10 μM; Abiotic Control
Your answer should be a number followed by the unit of measure.

Quick request: Percentage of Initial Parent Administration (Mean ± Std Dev): parent compound for each listed item, please.
1. CC(C)(C)c1ccc(OP(=O)(Oc2ccccc2)Oc2ccccc2)cc1 [4tBPDPP, 4-tert-butylphenyl diphenyl phosphate]
2. CC(C)c1ccc(OP(=O)(Oc2ccccc2)Oc2ccccc2)cc1 [4IPPDPP, 4-isopropylphenyl diphenyl phosphate]

Solution:
1. 81 ± 1%
2. 94 ± 6%

Could you tell me Percentage of Initial Parent Administration (Mean ± Std Dev): parent compound for each of these compounds? They are listed below.
1. CC(C)c1ccccc1OP(=O)(Oc1ccccc1)Oc1ccccc1 [2IPPDPP, 2-isopropylphenyl diphenyl phosphate]
2. O=P(Oc1ccccc1)(Oc1ccccc1)Oc1ccccc1 [TPHP, triphenyl phosphate, reference compound]

Solution:
1: 103 ± 10%; 2: 95 ± 1%

###

Stated Conditions: 10 μM; unprocessed spike
Outcome Measure: Percentage of Initial Parent Administration (Mean ± Std Dev): parent compound (%)
One number for each entry, in %.

Sample records with Percentage of Initial Parent Administration (Mean ± Std Dev): parent compound:
| Molecule | Data Value |
| --- | --- |
| CC(C)c1ccccc1OP(=O)(Oc1ccccc1)Oc1ccccc1 [2IPPDPP, 2-isopropylphenyl diphenyl phosphate] | 100 |
| O=P(Oc1ccccc1)(Oc1ccccc1)Oc1ccccc1 [TPHP, triphenyl phosphate, reference compound] | 100 |

Please supply Percentage of Initial Parent Administration (Mean ± Std Dev): parent compound for each of the following items, keeping them in order.
1. CC(C)c1ccc(OP(=O)(Oc2ccccc2)Oc2ccccc2)cc1 [4IPPDPP, 4-isopropylphenyl diphenyl phosphate]
2. CC(C)(C)c1ccc(OP(=O)(Oc2ccccc2)Oc2ccccc2)cc1 [4tBPDPP, 4-tert-butylphenyl diphenyl phosphate]

Solution:
100
89

###

Stated Conditions: 1 μM; s9 & glucuronidase; after 60 min (Eq. 1)
So I've got a bunch of compounds here, and I need their % Depletion values.
Answers are plain numbers, in %.

Worked examples follow.
| Compound | % Depletion (%) |
| --- | --- |
| CC(C)c1ccccc1OP(=O)(Oc1ccccc1)Oc1ccccc1 [2IPPDPP, 2-isopropylphenyl diphenyl phosphate] | 35 |
| CC(C)c1ccc(OP(=O)(Oc2ccccc2)Oc2ccccc2)cc1 [4IPPDPP, 4-isopropylphenyl diphenyl phosphate] | 73 |
| O=P(Oc1ccccc1)(Oc1ccccc1)Oc1ccccc1 [TPHP, triphenyl phosphate, reference compound] | 69 |

Let's switch to this compound now.
Problem: Complete the entry with % Depletion for CC(C)(C)c1ccc(OP(=O)(Oc2ccccc2)Oc2ccccc2)cc1 [4tBPDPP, 4-tert-butylphenyl diphenyl phosphate]
Solution: 43
